Source listed as the RNAGym collection of RNA variant scans (doi:10.1073/pnas.2313332121).

B1: TPR 5TU (parent)
chain: GGAUCUUCUCGAUCUAACAAAAAAGACAAAUCUGCCACAAAGCUUGAGAGCAUCUUCGGAUGCAGAGGCGGCAGCCUUCGGUGGCGCGAUAGCGCCAACGUUCUCAACUAUGACACGCAAAACGCGUGCUCCGUUGAAUGGAGUUUAUCAUG

- Variants of: B1
- Assay Method Text: polymerase ribozyme fitness, log enrichment relative to wild type (log ratio); higher = more active; in vitro selection for triplet polymerase activity
This sample holds only a part of the variants without activity.
Observation Type: polymerase ribozyme fitness (log ratio)
Give bare numbers.

Worked examples, 3 variants total:
Mut	polymerase ribozyme fitness (log ratio)
C14U C87U U102C	-4.18
C54U G94C	-1.15
U56A G81A C103G A121G A122U	-1.56

// for each variant below, give its polymerase ribozyme fitness (log ratio)
1. A39G C54G C57A
2. C5A
3. U6G A29G
4. G86U C96A
5. A19C A21C C35U G59U C75U

1: -3.22; 2: 0.273; 3: -3.97; 4: -2.89; 5: -1.16

// input: 5 variants below; output: polymerase ribozyme fitness (log ratio) for each
1. U4G C14U A52U C63U C85U
2. U53A A119U
3. C8U C27U A115G
4. A26U C93U
5. U4G A21G A52G G141A

1. -4.13
2. -2.1
3. -4.06
4. -2.67
5. -2.63
